# IC50 values compiled below
target: T1, human ILT4 expressed on cells (human, UniProt Q8N423 22-597); assay: flow cytometry blocking assay: ILT4-expressing CHO cells preincubated with antibody, then PE-HLA-G; HLA-G binding MFI falls from about 105000 (no antibody) to near 0
T1 construct: whole, on cells; also called CHO-S/ILT4 cells; ILT4-CHO cells
T1 sequence (Q8N423 22-597): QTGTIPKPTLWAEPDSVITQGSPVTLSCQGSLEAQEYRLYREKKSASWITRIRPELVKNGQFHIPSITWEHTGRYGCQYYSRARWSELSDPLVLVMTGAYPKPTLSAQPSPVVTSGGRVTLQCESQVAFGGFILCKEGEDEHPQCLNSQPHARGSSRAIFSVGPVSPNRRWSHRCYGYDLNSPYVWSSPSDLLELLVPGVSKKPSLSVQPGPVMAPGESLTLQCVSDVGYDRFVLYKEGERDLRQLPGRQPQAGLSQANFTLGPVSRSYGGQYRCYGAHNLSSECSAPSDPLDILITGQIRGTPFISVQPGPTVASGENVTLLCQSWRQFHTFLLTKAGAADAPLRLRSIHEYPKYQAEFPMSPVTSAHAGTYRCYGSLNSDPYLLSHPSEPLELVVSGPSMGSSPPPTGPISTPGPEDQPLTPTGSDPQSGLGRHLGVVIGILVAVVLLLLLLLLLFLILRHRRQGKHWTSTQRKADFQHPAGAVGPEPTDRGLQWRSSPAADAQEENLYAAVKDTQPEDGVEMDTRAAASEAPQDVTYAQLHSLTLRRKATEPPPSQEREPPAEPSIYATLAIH
Your answer should be a plain number; it is taken to be in µg/mL.

Input: Look up IC50 for this binder: L45S4 (antibody, IgG2a, V domains shown, also called Murine 45; mouse anti-human ILT4 antibody L45S4) VH: EVQLQQSGPELVKPGASVKISCKASGYTFTDYYMNWVKQSHGKSLEWIGDINPNNGGTSYNQKFKGKATLTVDKSSSTAYMELRSLTSEDSAVYYCARGGAELTGTYWYFDVWGTGTTVTVSS VL: DIQMTQSPASLSISVGETVTITCRASENIYSNLAWYQQKQGKSPQVLVYGATNLADGVPSRFSGSGSGTQYSLKIKSLQSEDFGSYYCQHFWDSPFTFGSGTKLEIK
Output: 0.071

Input: Look up IC50 for this binder: 1E1 (antibody, V domains shown) VH: QVQLQQWGAGLLKPSETLSLTCAVYGGSFSGYYWSWIRQPPGKGLEWIGEINHSGSTNYNPSLKSRVTISVDTSKNQFSLKLSSVTAADTAVYYCARLPTRWVTTRYFDLWGRGTLVTVSS VL: QSVLTQPPSVSGAPGQRVTISCTGSSSNIGAGYDVHWYQQLPGTAPKLLIYGNSNRPSGVPDRFSVSKSGASASLAITGLQAEDEADYYCQSFDNSLSAYVFGGGTQLTVL
Output: 0.096

Input: Look up IC50 for this binder: L77S2 (antibody, IgG1, V domains shown, also called Murine 77; mouse anti-human ILT4 antibody L77S2) VH: DVQLQQSGPELVKPGNSVKISCKAAGYSFTGYSVNWVKERHGKSLEWIGRINPYNGDIFNNQKFKGKATLTVDKSSSTAHMELRSLTSEDSAVYYCARGTTVGGAWFAYWGQGTLVTVSA VL: VIVLTQSPASLAVSLGQRAAISCRASESVDSYGYSFLHWYQQKPGQPPKLLIYLASNLESGIPARFSGSGSGTDFTLTINPVEADDVATYYCQQSNEDLMYTFGGGTKLEIK
Output: 0.076
